Test: Cytotoxicity against human A2780/TAX cells assessed as survival at 10 uM after 48 hrs by MTT assay relative to control
Assay type: cell-based, A2780/Taxol
Details: read-out: Survival
Reported viability at 48 h, 10 µM is given for each of the following molecules.
Readout type: viability at 48 h, 10 µM (%)

CCOc1ccc2c(C)cc(=O)oc2c1COC(=O)c1cc(OC)c(OC)cc1OC	84.1
CCCc1ccc(C(=O)OCc2c(OC(C)C)ccc3c(C)cc(=O)oc23)cc1	101
Cc1cc(=O)oc2c(COC(=O)c3cccc(N(C)C)c3)c(OC(C)C)ccc12	102
CCOc1ccc2c(C)cc(=O)oc2c1COC(=O)c1ccc(C)cc1	95.8
Cc1cc(=O)oc2c(COC(=O)c3ccc(F)cc3)c(OC(C)C)ccc12	102
